Overview of reported EC50, PD-1/PD-L1 blockade (PDL1 Blockade, luciferase signal) across a group of binders:
molecular target: human PD-L1 expressed on the cell surface (CHO cells expressing human PD-L1; Promega CS187103 / 187103 cells) (human, UniProt Q9NZQ7 19-290); test: cell-based or functional assay
Sequence (Q9NZQ7 19-290): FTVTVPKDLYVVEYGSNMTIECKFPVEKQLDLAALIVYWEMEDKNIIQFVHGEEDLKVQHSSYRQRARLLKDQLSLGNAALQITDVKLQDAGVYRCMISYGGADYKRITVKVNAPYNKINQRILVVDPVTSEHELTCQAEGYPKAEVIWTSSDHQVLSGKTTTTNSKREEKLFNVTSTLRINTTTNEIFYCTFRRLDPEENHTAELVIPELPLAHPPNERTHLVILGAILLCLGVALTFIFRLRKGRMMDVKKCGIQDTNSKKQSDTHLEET
assay_endpoint: EC50, PD-1/PD-L1 blockade (PDL1 Blockade, luciferase signal)

{"binder": "h3C5H2-h3C5L2 (humanized 3C5, IgG) (antibody, V domains shown) VH: QVQLQESGPGLVKPSETLSLTCTVSGFSLTSYDISWIRQPPGKGLEWLGVIWTGVGTNYNPSLKSRVTISKDTSKNQFSLKLSSVTAADTAVYYCARDPYYYGMDYWGQGTLVTVSS VL: DIQMTQSPSSLSASVGDRITITCRASQDISIWLSWYQQKPGKAPKLLIYKASNLHTGVPSRFSGSGSGTDFTLTISSLQPEDFATYYCLQSQSFPRTFGQGTKLEIKR", "result_value": "381 pM"}
{"binder": "h3C5H1-h3C5L1 (humanized 3C5, IgG) (antibody, V domains shown) VH: QVQLQESGPGLVKPSETLSLTCTVSGFSLTSYDISWIRQPPGKGLEWIGVIWTGVGTNYNPSLKSRVTISVDTSKNQFSLKLSSVTAADTAVYYCARDPYYYGMDYWGQGTLVTVSS VL: DIQMTQSPSSLSASVGDRVTITCRASQDISIWLSWYQQKPGKAPKLLIYKASNLHTGVPSRFSGSGSGTDFTLTISSLQPEDFATYYCLQSQSFPRTFGQGTKLEIKR", "result_value": "221 pM"}
{"binder": "h3C5H3-h3C5L2 (humanized 3C5, IgG) (antibody, V domains shown) VH: QVQLQESGPGLVKPSETLSITCTVSGFSLTSYDISWVRQPPGKGLEWLGVIWTGVGTNYNPSFKSRLTISKDTSKNQVSLKMSSLTAADTAVYYCVRDPYYYGMDYWGQGTLVTVSS VL: DIQMTQSPSSLSASVGDRITITCRASQDISIWLSWYQQKPGKAPKLLIYKASNLHTGVPSRFSGSGSGTDFTLTISSLQPEDFATYYCLQSQSFPRTFGQGTKLEIKR", "result_value": "214 pM"}
{"binder": "h3C5H4-h3C5L2 (humanized 3C5, IgG) (antibody, V domains shown) VH: QVQLQESGPGLVKPSETLSITCTVSGFSLTSYDISWIRQPPGKGLEWLGVIWTGVGTNYNPSFKSRLTISKDNSKNQVSLKMSSLTAADTAVYYCVRDPYYYGMDYWGQGTLVTVSS VL: DIQMTQSPSSLSASVGDRITITCRASQDISIWLSWYQQKPGKAPKLLIYKASNLHTGVPSRFSGSGSGTDFTLTISSLQPEDFATYYCLQSQSFPRTFGQGTKLEIKR", "result_value": "296 pM"}

Where do these numbers come from? They come from patent US20240002514A1.
